Provenance of the data: PubChem BioAssay (NCI)

# System: HCC-2998 colon
# assay_name: NCI tumour cell line growth inhibition, 48 h
Entries annotated with measured TGI
value_type: TGI

compound: COc1ccc2c(c1)OCCc1cn[nH]c1-2
tested_system: HCC-2998 colon
meas_value: > 100 µM
//
compound: CCOC(=O)C(NC(=O)CC)(Nc1ccc(S(=O)(=O)Nc2onc(C)c2C)cc1)C(F)(F)F (stereo not given)
tested_system: HCC-2998 colon
meas_value: > 100 µM
//
compound: CCc1ccccc1NC(=O)/C=C/c1ccccc1
tested_system: HCC-2998 colon
meas_value: > 100 µM
//
compound: NS(=O)(=O)c1ccc(N=Nc2c(O)[nH]c3ccc(C(=O)NCc4ccncc4)cc23)cc1
tested_system: HCC-2998 colon
meas_value: > 25 µM
//
compound: Cc1cccc2nc3c(=O)[nH]c(=O)nc-3n(C)c12
tested_system: HCC-2998 colon
meas_value: > 100 µM
//
compound: COC(=O)C12CC(NC(=O)c3csc([C@@H](C[C@H](C(C)C)N(C)C(=O)[C@@H](NC(=O)[C@H]4CCCCN4C)C4CC4)OC(C)=O)n3)(C1)C2
tested_system: HCC-2998 colon
meas_value: > 16.7 µM
//
compound: Cc1ccc(N(O)C(C)(C)C)cc1
tested_system: HCC-2998 colon
meas_value: > 100 µM
//
compound: CC(=O)NC1=C(NCCCl)C(=O)c2ccccc2C1=O
tested_system: HCC-2998 colon
meas_value: > 100 µM
//
compound: CC12CCCCC1=[N+]([O-])C(C)(C)N2O (stereo not given)
tested_system: HCC-2998 colon
meas_value: > 100 µM
//
compound: C[Si](C)(C)C(CCCCSc1ccccc1)(Sc1ccccc1)Sc1ccccc1
tested_system: HCC-2998 colon
meas_value: > 100 µM
//
compound: CCOC(=O)c1cc2c(OCc3ccccc3)c(OC)cc3c2c(n1)N(c1ccc(OC)cc1)C(C)C3 (stereo not given)
tested_system: HCC-2998 colon
meas_value: > 50 µM
//
compound: O=[N+]([O-])c1ccc2oc(=Nc3ccccc3)c(Nc3ccccc3)nc2c1
tested_system: HCC-2998 colon
meas_value: > 100 µM
//
compound: CC(C)OP(=O)(OC(C)C)C1=NN(c2ccc([N+](=O)[O-])cc2)C(P(=O)(OC(C)C)OC(C)C)=NN1c1ccc([N+](=O)[O-])cc1
tested_system: HCC-2998 colon
meas_value: > 100 µM
//
compound: CS[C@]12[C@@H]3C(=O)N(C)C(=O)[C@@H]3[C@](C)(C(=O)N1C)C(=O)N2c1ccccc1
tested_system: HCC-2998 colon
meas_value: > 100 µM
//
compound: CC(C)(O)C1CC[C@]2(C)[C@H]3CC[C@@H]4[C@@]5(C)CCCC(C)(C)[C@@H]5CC[C@@]4(C)[C@]3(C)CC[C@@H]12 (stereo not given in full)
tested_system: HCC-2998 colon
meas_value: > 100 µM
//
compound: Cc1nc2n(c1/C=C1/C(=O)Nc3ccccc31)CCS2
tested_system: HCC-2998 colon
meas_value: 61.9 µM
//
compound: CN(C)c1ccc(/C=C/C(=O)N[C@@H]2C(=O)N3[C@@H]2SC(C)(C)[C@@H]3C(=O)O)cc1
tested_system: HCC-2998 colon
meas_value: > 100 µM
//
compound: CCSCN(C)c1nc(N(C)C)nc(N(C)C)n1
tested_system: HCC-2998 colon
meas_value: > 100 µM
//
compound: NCCCCC1NC(=O)C(CC(=O)O)NC(=O)CNC(=O)C(CCCN=C(N)N)NC(=O)C(N)CSSCC(C(=O)O)NC(=O)C(CC(=O)O)NC(=O)C2CCCN2C(=O)CNC1=O (stereo not given)
tested_system: HCC-2998 colon
meas_value: > 100 µM
//
compound: CS(=O)(=O)c1nc(-c2cc3c(c(S(C)(=O)=O)n2)CCC3)cc2c1CCCC2
tested_system: HCC-2998 colon
meas_value: > 100 µM
//
compound: C1=C/COCc2cc(ccc2OCCN2CCCC2)Nc2nccc(n2)-c2ccc(o2)COC/1
tested_system: HCC-2998 colon
meas_value: 7.93 µM
//
compound: COC(=O)c1c(CC(Cc2ccc3c(c2)CCCC3)C(=O)OC)ccc2c1CCCC2 (stereo not given)
tested_system: HCC-2998 colon
meas_value: > 100 µM
//
compound: CN(C)CCNC(=O)c1cccc2cc3cc(O)ccc3nc12
tested_system: HCC-2998 colon
meas_value: 8.3 µM
//
compound: C#CCNC(=S)N/N=C(\C)c1ccccn1
tested_system: HCC-2998 colon
meas_value: > 100 µM
//
compound: CC(=O)OC12c3ccccc3C(c3ccccc31)C1C(=O)N(c3ccccn3)C(=O)C12 (stereo not given)
tested_system: HCC-2998 colon
meas_value: > 100 µM
